experiment: soluble fraction after stress (log2 fold change); higher = more stays soluble; pooled small domains, quantitative proteomics; conditions: stress: 75 degC;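 note: 20 min heating vs room temperature control held 20 min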
Overview of reported soluble fraction (log2) across a group of sequences:
PROPERTY NAME: soluble fraction (log2)

{"SEQUENCE CONTENT": "HMMESLGIRLKRLRKDKGLTQVELGKLSGVTGVTIGYWEKDLNEPGSKALSKLAQALGTTESYLLYGVS", "NUMERIC RESULT": -1.21}
{"SEQUENCE CONTENT": "HMPSEQGANKARDIIFRHHMKVDVWVGSWENARNYAEQAIKQGVKVIISRGGTAALLRHSLDTAIIKVR", "NUMERIC RESULT": 0.14}
{"SEQUENCE CONTENT": "HMGSLQPLLLAAIDALQTHIRSGLPFRVEERLAELDQFRTELQNGSVPPQRGVNRLWAFYEDEFRL", "NUMERIC RESULT": -1.06}
{"SEQUENCE CONTENT": "HMGSFTDKQIKQAFGVLNDPRFKQGNYDGAVAVINKIAPGLADHPSVANALKRANEATQDIAQQTQA", "NUMERIC RESULT": 0.0868}

====

Overview of reported soluble fraction (log2) across a group of sequences:
assay: soluble fraction after stress (log2 fold change); higher = more stays soluble; pooled small domains, quantitative proteomics; conditions: stress: 75 degC

{"SEQUENCE CONTENT": "HMWDRFGELDSAEEINRIAAAELREGDIDALKVLAEENGLDKDDVEDYIDRLIDELTTPELAAIGKLDV", "soluble fraction (log2)": 0.275}
{"SEQUENCE CONTENT": "HMNYNEKGEYTRTLTSGSETAVMTYRNFGETLDVALFKNGVQTDSLRLIKSEPGVLYRQSNGQFEKI", "soluble fraction (log2)": -0.158}
{"SEQUENCE CONTENT": "HMNIVINVDTPTFEQMKATYQAPGTLPAGASFHAKLKGVTVTGYTKSHKVMFQGALANQEAARWQ", "soluble fraction (log2)": -1.88}
{"SEQUENCE CONTENT": "HMRATLTDETARVVQEPTSESISLTSLRKGEEFEIGKVIRKKKEVWVTVTTSSGVKGYISGDTHIF", "soluble fraction (log2)": 0.00739}
{"SEQUENCE CONTENT": "HMENHILIIDDDLMLLKTAEEILSDQYNVSVAKSGIQALNLLNKNIIPDLILLDIDMPQMDGYETL", "soluble fraction (log2)": -0.0633}
{"SEQUENCE CONTENT": "HMDGLTEQQADDILAFISIKGTNAEVLAALENYAGRNETFDTGLSELKVVASNLAAFGMPEENFVVDL", "soluble fraction (log2)": 0.283}
{"SEQUENCE CONTENT": "HMQNYNLTQQEKKVLQLLVSGKSYKMIAAELNVAFDTVKSHITNIYSKLHVHSGTEAVSVAIRDKI", "soluble fraction (log2)": -1.46}
{"SEQUENCE CONTENT": "HMATPYISMAGIGKSFGPVHALKSVNLTVYPGEIHALLGENGAGKSTLMKVLSGIHEPTKGTITINNIN", "soluble fraction (log2)": 0.458}

====

experiment: soluble fraction after stress (log2 fold change); higher = more stays soluble; pooled small domains, quantitative proteomics; settings: stress: 75 degC

{"SEQUENCE CONTENT": "HMKTGTTGLIGEIGVVKKALTPEGKVFVHGELWRAVSKTASPEGTLVQVIKINNLVLEVEKV", "soluble fraction (log2)": -2.98}
{"SEQUENCE CONTENT": "HMDEVVVVERGGVQITMSEIDAKIMELPVDVRPSYLDSPERLQNFVSNLLLEKQAAQLKSQY", "soluble fraction (log2)": -0.142}
{"SEQUENCE CONTENT": "HMDDAIAEKTGGAVSSVNQRQAILDHIREAYGIELESLRSTDIERYLDDPEIPEPVKDILRDRLRGAK", "soluble fraction (log2)": 0.204}
{"SEQUENCE CONTENT": "HMAIPTTDSDKATDAQIKQIKLLGDIHPNLKLDAWLERNHVTWETLTREQAGNMMKAIKNKYGD", "soluble fraction (log2)": -0.105}
{"SEQUENCE CONTENT": "HMTRPLVILEDVKFPSYNEIVSLTLPDGTRRGGQVLEVSGNKAIVQVFEGTSGIDVKDTHIELTKSS", "soluble fraction (log2)": 0.237}
{"SEQUENCE CONTENT": "HMSLPAYIKISEVIARRINAGQILAGDRLPNERTMAVEFGVAVGTLRKALYHLQVRGLVTRKHGSGNYINK", "soluble fraction (log2)": -0.221}
{"SEQUENCE CONTENT": "HMEKEEELNSIRPDLDGNDIMEILGVPAGPKVGKAYNYLLNVRLDEGPLSRAEAISRLEAWWENQ", "soluble fraction (log2)": -0.168}
{"SEQUENCE CONTENT": "HMFGIEIPEEAGKLQDYTLTDDDLEGGNTLKEIQFPQGARVVIIRRDDKFIIPDGSVELQSGDQLLIIYGE", "soluble fraction (log2)": -1.59}

====

assay: soluble fraction after stress (log2 fold change); higher = more stays soluble; pooled small domains, quantitative proteomics; conditions: stress: 75 degC
Classes (soluble fraction (log2)): class A: < -0.6; class B: ≥ -0.6 and < 0.07; class C: ≥ 0.07

{"SEQUENCE CONTENT": "HMAKSPYDVLGLKEDAPFDEVKKRYRELVKKYHPDILMGRGESEEMIEKSTRKLQEINEAYETIKQRA", "ASSIGNED CLASS": "class C"}
{"SEQUENCE CONTENT": "HMAALKVAVLTVSDTRTQETDTSGAFLEGALREAGHEIADRQIVIDDVYQLRAIVSQWIADPEVEVILT", "ASSIGNED CLASS": "class B"}
{"SEQUENCE CONTENT": "HMSSSYTEMQLERFKELLNKETLLSSEKNELKNLISDFDKISEIVSPLVVGAYLQLKNEHIETINSLG", "ASSIGNED CLASS": "class B"}
{"SEQUENCE CONTENT": "HMSDKFNALWIILNKLDKKEKVTARSLMEDLEVSERSVYRYITTLQVAGFPVDYDRAVNSYVFSDGYTLK", "ASSIGNED CLASS": "class A"}
{"SEQUENCE CONTENT": "HMNRLEFLQGLKAELEGRVPHSIIQENLRYYDSYISDEAAKGQSEEDVVESLGGPRIIARTIVDAA", "ASSIGNED CLASS": "class C"}
{"SEQUENCE CONTENT": "HMNNQILYERLRDLRERNHFTQAFVSSKLNIGRATYSNYERGKRTPSLDVIMDLASFYKVPFTYF", "ASSIGNED CLASS": "class C"}
{"SEQUENCE CONTENT": "HMRDGYEKPTEVGEGGRNPAMLSYIGHLRAKGHLSEEDIRSMAHGFNATTFDPPLDRDEVDGLVSRY", "ASSIGNED CLASS": "class C"}
{"SEQUENCE CONTENT": "HMTSNKTVPYSELKGLISTGKIEYVGIGNTQIRAVSKSGAGIVTYTARRVIPDDTLIPELEKNGIAYGGI", "ASSIGNED CLASS": "class A"}
{"SEQUENCE CONTENT": "HMNAESLIGDRAVVTVAIERNKRGRVDVTGQDWAATTRDGEEIKVGQEVLVVGISGVALIVEER", "ASSIGNED CLASS": "class A"}
{"SEQUENCE CONTENT": "HMTESFEFTMNDLVQNNLIMGSGAKERRIAVGEALGIGYTNAKQFLSRLNHYGITRKEFDDEIEKVNQN", "ASSIGNED CLASS": "class B"}
{"SEQUENCE CONTENT": "HMFISVDGLIHMGRTHLVILGGVEFARGDMIPETGEVVKSIGADSVVLELPDTGMRRTLNFV", "ASSIGNED CLASS": "class A"}
{"SEQUENCE CONTENT": "HMELMKPPGYWQSLENAIYESKKVIKEHGFDTLPSSNKLRELDYHGLSRAISVHHSGFPNFREIMNQELGI", "ASSIGNED CLASS": "class B"}
{"SEQUENCE CONTENT": "HMGTPKMPLSLYLSMVENLRSLKRFALVNQQVKDGFVFFNDVAGIKRLQELLNYHNTGEKPSE", "ASSIGNED CLASS": "class A"}
{"SEQUENCE CONTENT": "HMGGKAITGGEGEIIIRADKAETVAIYGIDGRLVHRVSTEAGDTKRVSVPAGIYIVKGAKVVV", "ASSIGNED CLASS": "class C"}
{"SEQUENCE CONTENT": "HMREEQELFRKLLEVNGIGPKVAAGMLAGGRPEDVVSAIRREDVAWLTKLPGIGRKTAQRIVLDLKDKLD", "ASSIGNED CLASS": "class B"}
{"SEQUENCE CONTENT": "HMKITFNPVSSGRLDIILAEKTGYTRSYVKQLVEKQAVTINGEAAKKSGQNVKAGDEIALDEP", "ASSIGNED CLASS": "class C"}
{"SEQUENCE CONTENT": "HMKNNLKGSPIIIAGGYGVGSKENFNLLFDLAKVLNAEVGASRAAVDAGFVEHDRQIGQTGVTVRP", "ASSIGNED CLASS": "class C"}
{"SEQUENCE CONTENT": "HMTKQIILVHVAGKVKKPDVYPLLQGSRVADAIKAAGGAKKGVELNDINLARVLIDGEQVFVGYVPE", "ASSIGNED CLASS": "class A"}
{"SEQUENCE CONTENT": "HMQNNITISKEIELRTGPDDTYPTLKKVTAGDNVEMLSKSDTWYEIKTNDSFVGWVPGWSIL", "ASSIGNED CLASS": "class B"}
{"SEQUENCE CONTENT": "HMSVIETLLSDREREVLTHLVNGYDAKRIAEITGISTLTVRKHIANIYTKLHVNSKAQVISMAHKNKWF", "ASSIGNED CLASS": "class A"}
{"SEQUENCE CONTENT": "HMSGTESMIEGRGEARTAIDGEGKVFFQGEYWTAQSDQFIPQGAKVRIKKVEGLNLIVEEIK", "ASSIGNED CLASS": "class B"}
{"SEQUENCE CONTENT": "HMWKQISSEAELLPAVRSVIQANPGEAEKLRNGEMAPLEFLTGLVMKKTNGMAVPQIVKTLIKKELKI", "ASSIGNED CLASS": "class B"}
{"SEQUENCE CONTENT": "HMARAGKLAQDMAVWTKETMLNTERNFISLRHFKRELLRRTLAPGESEQTVRAMEEAGYIQVKDGLVFPIK", "ASSIGNED CLASS": "class A"}
{"SEQUENCE CONTENT": "HMFINITAITGNNYNTPDAARNALPNTYNKKIGLVFTYRDLTNRYRVYLYNSETSNYIPLDSYM", "ASSIGNED CLASS": "class A"}
{"SEQUENCE CONTENT": "HMRQQSLHSLYRDHHSWLQNWLRRQLGNTWDAADLSQDTFIKVLASSQSVAEIREPRAYLLTVGKRL", "ASSIGNED CLASS": "class B"}
{"SEQUENCE CONTENT": "HMPSPSTLAKVDPFLLVTNADSLLMARPDDSELRAAIITAHINLAKTNNSVDHYKEVLKIEPQNALANYN", "ASSIGNED CLASS": "class C"}
{"SEQUENCE CONTENT": "HMITNEDINIKKLLVVMKDTPLSANEIMDKLNIKSKETLRNMYLDPAIKKGLINLTIPDKPTSKNQKYYK", "ASSIGNED CLASS": "class B"}
{"SEQUENCE CONTENT": "HMKADIEQVQRAFDTLDPKNQQLVLDAMKAATAELDPNSDQFKTNTEFINDNQKALDRHAKAS", "ASSIGNED CLASS": "class C"}
{"SEQUENCE CONTENT": "HMIPDMSLELAMSEQTSKGDLYGDLPNDKLALMFNAISKKVPHTDDHKRKMVAIQTILESRAS", "ASSIGNED CLASS": "class B"}
{"SEQUENCE CONTENT": "HMSSRNLIIFYDSPQAENALLATAERYGAILLHHYRNLHGIAVAIPADKDMAQAVTYFSRQPGVRQV", "ASSIGNED CLASS": "class A"}
{"SEQUENCE CONTENT": "HMYRPQQEFTMRDLFQNNLNGSESASVRRDALGAELGIGYGNAKRFLERLNHYGVSREEFTAALEKLESE", "ASSIGNED CLASS": "class B"}
{"SEQUENCE CONTENT": "HMLQQNRAVEAEQLARKGLSYAQSNIQQAALWRLVAEATEQQGKVDAALNAKNKAMQLEMAG", "ASSIGNED CLASS": "class C"}
